# maps each entry to its koff
target: T1, Soluble heterodimeric CD3 protein (hCD3-epsilon/hCD3-delta) with a human Fc tag (hFcΔAdp/hFc) or a mouse Fc … (human, UniProt P07766 23-126; P04234 22-105); assay: SPR Biacore, 25 C, antibody-capture format
T1 construct: also called hCD3ε/δ; not shown: Fc tag: human (hFcΔAdp/hFc); which tag was used in Ta
T1 sequence (P07766 23-126 limits assumed, stated change not applied, chain 1 of 2): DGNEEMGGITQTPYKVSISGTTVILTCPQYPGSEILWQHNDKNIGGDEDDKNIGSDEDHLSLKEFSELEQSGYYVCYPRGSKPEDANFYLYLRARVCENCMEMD
T1 sequence (P04234 22-105 limits assumed, stated change not applied, chain 2 of 2): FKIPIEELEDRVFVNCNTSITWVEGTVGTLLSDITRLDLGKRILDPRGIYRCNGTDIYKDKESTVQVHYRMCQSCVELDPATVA

[
  {
    "binder": "H2M2711N (antibody, V domains shown, Hybridoma antibody, human variable regions, mouse IgG2 Fc) VH: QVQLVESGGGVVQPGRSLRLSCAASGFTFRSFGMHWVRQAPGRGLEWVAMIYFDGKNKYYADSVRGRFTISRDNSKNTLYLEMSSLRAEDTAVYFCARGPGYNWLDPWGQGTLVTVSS VL: EIVMTQSPATLSVSPGERATLSCRASQSVSRNLAWYQQKPGQAPRLLIYGASTRATGVPARFSGSGSGTEFTLTISSLQSEDFAVFHCQQYNNRPLTFGGGTEVEIK",
    "koff, s⁻¹": 0.000767
  },
  {
    "binder": "H2M2710N (antibody, V domains shown, Hybridoma antibody, human variable regions, mouse IgG2 Fc) VH: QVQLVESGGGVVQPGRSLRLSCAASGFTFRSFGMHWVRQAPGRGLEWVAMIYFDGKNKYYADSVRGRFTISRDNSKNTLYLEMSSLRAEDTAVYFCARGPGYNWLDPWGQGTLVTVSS VL: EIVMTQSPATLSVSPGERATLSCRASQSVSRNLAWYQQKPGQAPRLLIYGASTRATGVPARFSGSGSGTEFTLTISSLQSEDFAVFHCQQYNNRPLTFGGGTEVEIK",
    "koff, s⁻¹": 0.000753
  }
]

Origin of measurements: patent US20190127480A1
